- target under test: CFTR G551D mutant (Homo sapiens, UniProt P13569, G551D)
- Construct: expressed in transfected cells; host or cells: HEK293 cells, reverse transfection with plasmids
- Sequence (P13569 whole entry G551D): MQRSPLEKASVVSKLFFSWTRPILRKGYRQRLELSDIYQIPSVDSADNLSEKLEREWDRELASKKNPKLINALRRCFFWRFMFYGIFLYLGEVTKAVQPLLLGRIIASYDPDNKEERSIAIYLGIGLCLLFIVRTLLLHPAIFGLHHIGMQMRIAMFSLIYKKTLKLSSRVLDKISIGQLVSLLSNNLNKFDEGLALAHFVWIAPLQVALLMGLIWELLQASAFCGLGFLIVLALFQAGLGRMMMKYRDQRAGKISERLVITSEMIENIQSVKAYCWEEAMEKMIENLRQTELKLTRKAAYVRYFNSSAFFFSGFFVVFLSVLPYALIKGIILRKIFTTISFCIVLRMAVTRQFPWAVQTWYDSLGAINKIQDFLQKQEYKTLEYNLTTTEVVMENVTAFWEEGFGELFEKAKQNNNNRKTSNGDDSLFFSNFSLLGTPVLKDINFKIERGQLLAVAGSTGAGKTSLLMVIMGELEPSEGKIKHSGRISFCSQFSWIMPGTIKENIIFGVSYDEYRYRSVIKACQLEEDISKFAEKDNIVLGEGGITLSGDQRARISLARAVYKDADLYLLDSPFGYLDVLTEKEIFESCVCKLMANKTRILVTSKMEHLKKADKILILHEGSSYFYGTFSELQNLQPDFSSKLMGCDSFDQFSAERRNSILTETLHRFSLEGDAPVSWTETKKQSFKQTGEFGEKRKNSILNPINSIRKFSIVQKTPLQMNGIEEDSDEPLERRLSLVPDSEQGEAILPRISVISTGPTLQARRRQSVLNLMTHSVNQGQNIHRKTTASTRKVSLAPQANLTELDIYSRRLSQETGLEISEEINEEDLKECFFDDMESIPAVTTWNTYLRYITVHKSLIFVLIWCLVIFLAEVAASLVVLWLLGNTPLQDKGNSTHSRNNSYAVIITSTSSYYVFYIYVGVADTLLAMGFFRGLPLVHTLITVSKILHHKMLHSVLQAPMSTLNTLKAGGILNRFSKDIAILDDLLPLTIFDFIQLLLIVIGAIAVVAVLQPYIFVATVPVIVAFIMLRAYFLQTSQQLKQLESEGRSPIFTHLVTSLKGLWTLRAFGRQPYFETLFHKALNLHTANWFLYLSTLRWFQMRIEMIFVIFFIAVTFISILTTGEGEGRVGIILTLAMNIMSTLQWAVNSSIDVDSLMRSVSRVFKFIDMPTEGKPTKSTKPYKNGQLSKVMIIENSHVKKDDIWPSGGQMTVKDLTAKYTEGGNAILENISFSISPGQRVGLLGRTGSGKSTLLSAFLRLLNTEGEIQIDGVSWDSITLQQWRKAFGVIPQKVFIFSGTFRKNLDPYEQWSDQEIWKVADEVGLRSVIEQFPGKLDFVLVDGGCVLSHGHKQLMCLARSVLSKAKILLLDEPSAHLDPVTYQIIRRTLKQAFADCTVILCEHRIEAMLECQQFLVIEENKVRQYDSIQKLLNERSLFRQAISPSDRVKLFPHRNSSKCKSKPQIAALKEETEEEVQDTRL
- test summary: YFP-halide influx assay for the CFTR-G551D mutation (HEK293 cells)
- Type: cell-based
- experimental setup: forskolin 10.67 μM
Measured EC50, listed per entry.
observable: EC50

>>> val("C[C@H](O)CNC(=O)c1ncc(S(=O)(=O)N2CCC[C@@H]2C)cc1N [Compound 266]")
"> 10 µM"
>>> val("C[C@H](O)CNC(=O)c1nc(C2CC2)c(S(=O)(=O)c2ccc(F)cc2)cc1N [Compound 274]")
"> 3.33 µM"
>>> val("Nc1cc(S(=O)(=O)c2ccc(C(F)(F)F)cc2)cnc1C(=O)NCC(F)(F)F [Compound 209]")
"> 10 µM"
>>> val("Nc1cc(S(=O)(=O)c2ccc(F)cc2)cnc1C(=O)NCCC(O)C(F)(F)F (centres unmarked) [Compound 72]")
"> 3.33 µM"
>>> val("Nc1cc(S(=O)(=O)c2ccc(OC(F)(F)F)cc2)cnc1C(=O)NC1COC2(CCCCC2)C1 (centres unmarked) [Compound 149]")
"> 1.67 µM"
